Listing of recorded SPS (Spleen) by entry.
System: Reticulocyte Depletion Signature (Alas2 and peripherin probes), spleen
condition.notes: spleen data; signature derived from liver; * = p < 0.01

// below: answered compounds
N.N.O=C([O-])C1(C(=O)[O-])CCC1.[Pt+2]	0
NC(=O)NO [HYDROXYUREA, Hydroxyurea]	130*
O=P1(NCCCl)OCCCN1CCCl (stereo not drawn) [IFOSFAMIDE]	24
N.N.[Cl][Pt][Cl] [CISPLATIN]	0
CN(C)C=O [N,N-DIMETHYLFORMAMIDE]	0
O=NN(CCCl)C(=O)NCCCl	0
CCN(CC)N=O	0
O=C(O)CCCc1ccc(N(CCCl)CCCl)cc1	0

Next compound, please.
Input line: Need SPS (Spleen) of O=NN(CCCl)C(=O)NC1CCCCC1 , thanks.
Output line: 0
